EXPERIMENT_DESCRIPTION: Gamma irradiation of compound (I) in different containers, amounts of (I) and breakdown products by HPLC
Type: physicochemical
MEASUREMENT_SETUP: Glass container, gamma dose 25 kGY
Source text: During pharmaceutical development, aseptic formulations of paliperidone palmitate (I) were initially obtained by gamma irradiation. Compound (I) was irradiated with various doses of gamma rays in different containers.
MEASUREMENT_NAME: amount of (I) (%)
One number for each entry, in %.

Given CCCCCCCCCCCCCCCC(=O)OC1CCCn2c1nc(C)c(CCN1CCC(c3noc4cc(F)ccc34)CC1)c2=O (stereo not shown) , state its recorded amount of (I).
98.2
